Test system: P. falciparum chloroquine-sensitive line 3D7
Assay: SYBR Green I-based antiplasmodial assay, asexual blood stage, 3D7
Format: cell-based, Plasmodium falciparum
Conditions: Plasmodium falciparum, 3D7, average ± SEM of three replicates; read-out: 3D7: Average EC50
observation-type: EC50 (nM)
Kindly provide the numeric value in nM only, without the unit symbol.

# molecule, EC50, nM
rows = [
    ("C=C1C(C)C2C(Cc3ccccc3)NC(=O)C23C(=O)C=CC(O)C(O)C(C)CC(C)CC=CC3C1O (stereo not shown)", 290),
]

// lookup EC50 for C=C1C(C)C2C(Cc3ccccc3)NC(=O)C23C(=O)C=CC(O)CC(C)CC(C)CC=CC3C1O (stereo not shown) 2800
